tgt: human ether-à-go-go-related gene (hERG) potassium channel (human)
assay: primary screen, population patch clamp on CHO cells stably expressing hERG; higher = less effect of the substance;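 note: peak tail current of the secondary pulse compared with the same well before compound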
The campaign covered roughly 310,000 compounds. About 14,000 (4.5%) showed an effect of 50% or more. Effects have a minus sign here. The full list was thinned out, with strong results kept by preference.
I'd appreciate it if you could supply hERG current change (%, negative = inhibition) at 10uM values for the items below.
Please respond with the number in % and leave the unit unwritten.

In: Recorded hERG current change (%, negative = inhibition) at 10uM for CS(=O)(=O)Nc1ccc(C2=NN(C(=O)c3ccco3)C(c3cccc(F)c3)C2)cc1 (stereo not drawn) , please?
Out: -78.3

In: Recorded hERG current change (%, negative = inhibition) at 10uM for CS(=O)(=O)Nc1cccc(C2=NN(C(=O)c3ccccc3)C(c3cccs3)C2)c1 (stereo not drawn) , please?
Out: -14

In: Recorded hERG current change (%, negative = inhibition) at 10uM for Cc1ccc(C2=NN(C(=O)c3ccccc3F)C(c3ccccc3F)C2)cc1 (stereo not drawn) , please?
Out: 19

In: Recorded hERG current change (%, negative = inhibition) at 10uM for CCS(=O)(=O)Nc1ccc(C2=NN(C(=O)c3ccco3)C(c3cccc(F)c3)C2)cc1 (stereo not drawn) , please?
Out: -32.4

In: Recorded hERG current change (%, negative = inhibition) at 10uM for CS(=O)(=O)Nc1ccc(C2=NN(C(=O)c3ccco3)C(c3ccccc3F)C2)cc1 (stereo not drawn) , please?
Out: -78.2

In: Recorded hERG current change (%, negative = inhibition) at 10uM for FC(F)(F)c1nc(SCc2ccc(Cl)cc2Cl)n[nH]1 , please?
Out: -0.342

In: Recorded hERG current change (%, negative = inhibition) at 10uM for CCC(=O)N1N=C(c2ccc(NS(=O)(=O)CC)cc2)CC1c1ccc(C)cc1 (stereo not drawn) , please?
Out: -14.1

In: Recorded hERG current change (%, negative = inhibition) at 10uM for CN1CCN(C(=O)CCN2C(=O)/C(=C/c3ccccc3Cl)SC2=S)CC1 , please?
Out: 9.65

In: Recorded hERG current change (%, negative = inhibition) at 10uM for N#CC1=C(N)Oc2cc(N)ccc2C1c1ccc(F)cc1F (stereo not drawn) , please?
Out: -22.9

---

tgt: human ether-à-go-go-related gene (hERG) potassium channel (human, UniProt Q12809)
Sequence (Q12809 whole entry, looked up): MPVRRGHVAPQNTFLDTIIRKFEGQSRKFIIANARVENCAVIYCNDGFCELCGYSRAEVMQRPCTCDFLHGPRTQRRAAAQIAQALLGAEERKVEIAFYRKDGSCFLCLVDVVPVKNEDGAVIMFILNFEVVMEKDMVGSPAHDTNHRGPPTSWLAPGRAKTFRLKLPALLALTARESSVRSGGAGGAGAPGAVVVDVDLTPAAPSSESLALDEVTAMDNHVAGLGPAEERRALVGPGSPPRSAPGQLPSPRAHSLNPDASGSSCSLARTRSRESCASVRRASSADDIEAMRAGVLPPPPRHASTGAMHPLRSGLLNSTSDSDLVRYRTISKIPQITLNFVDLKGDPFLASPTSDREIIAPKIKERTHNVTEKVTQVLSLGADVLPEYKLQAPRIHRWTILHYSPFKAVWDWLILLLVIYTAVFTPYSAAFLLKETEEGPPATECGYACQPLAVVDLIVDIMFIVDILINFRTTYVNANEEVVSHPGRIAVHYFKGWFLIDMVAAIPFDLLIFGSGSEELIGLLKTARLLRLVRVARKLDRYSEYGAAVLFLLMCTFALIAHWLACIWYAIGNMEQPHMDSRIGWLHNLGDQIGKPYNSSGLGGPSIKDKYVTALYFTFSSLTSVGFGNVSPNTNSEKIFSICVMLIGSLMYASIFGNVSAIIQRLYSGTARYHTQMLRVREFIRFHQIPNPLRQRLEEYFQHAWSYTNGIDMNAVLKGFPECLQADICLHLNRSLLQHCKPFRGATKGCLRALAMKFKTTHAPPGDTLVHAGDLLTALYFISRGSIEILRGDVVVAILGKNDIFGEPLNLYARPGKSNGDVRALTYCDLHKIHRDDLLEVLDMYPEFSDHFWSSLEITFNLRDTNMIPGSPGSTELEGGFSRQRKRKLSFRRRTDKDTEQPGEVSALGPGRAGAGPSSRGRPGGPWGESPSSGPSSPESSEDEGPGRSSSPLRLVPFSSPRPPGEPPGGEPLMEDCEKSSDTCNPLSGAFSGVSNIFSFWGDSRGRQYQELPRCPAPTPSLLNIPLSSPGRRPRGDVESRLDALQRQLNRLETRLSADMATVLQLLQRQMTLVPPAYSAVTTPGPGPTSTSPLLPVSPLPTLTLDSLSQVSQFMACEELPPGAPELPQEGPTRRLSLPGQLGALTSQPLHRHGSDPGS
assay: primary screen, population patch clamp on CHO cells stably expressing hERG; higher = less effect of the substance
The campaign covered roughly 310,000 compounds. About 14,000 (4.5%) showed an effect of 50% or more. The effect is printed as a negative number. Many of the other results were omitted from the sample, so strong results are more common in it than they were. Where a SMILES comes first, the peptide text is derived from it. The star is where a group is joined. Boc = CC(C)(C)OC(=O)*
Please note: Y applies when hERG current change (%, negative = inhibition) at 10uM is 10% or greater, and N applies otherwise.

In: Check the entry O=[N+]([O-])c1ccc2c(c1)[nH]c(=S)n2-c1ccccc1 : does hERG current change (%, negative = inhibition) at 10uM equal or exceed 10%?
Out: Y

In: Check the entry CCOc1ccccc1N1CCN(C(=O)c2cc3c(C)cc(C)cc3[nH]2)CC1 : does hERG current change (%, negative = inhibition) at 10uM equal or exceed 10%?
Out: N

In: Check the entry NC(=S)N=Nc1c(O)n(CC(=O)Nc2ccccc2)c2ccccc12 : does hERG current change (%, negative = inhibition) at 10uM equal or exceed 10%?
Out: Y

In: Check the entry O=C(O)c1cc(NC(=O)c2cccc(F)c2)cc(NC(=O)c2cccc(F)c2)c1 : does hERG current change (%, negative = inhibition) at 10uM equal or exceed 10%?
Out: Y

In: Check the entry COc1ccc(C2CC(=O)C(C=NCCN3CCN(C(=S)Nc4ccccc4)CC3)=C(O)C2)cc1OC (stereo not drawn) : does hERG current change (%, negative = inhibition) at 10uM equal or exceed 10%?
Out: N

In: Check the entry CCOC(=O)c1ccc(NC(=O)c2cn(CCC#N)nc2-c2ccc3c(c2)OCCO3)cc1 : does hERG current change (%, negative = inhibition) at 10uM equal or exceed 10%?
Out: N

In: Check the entry COc1ccc(C2CC(=O)C(C=NCCO)=C(O)C2)cc1OC (stereo not drawn) : does hERG current change (%, negative = inhibition) at 10uM equal or exceed 10%?
Out: N

In: Check the entry C=CCSc1nsc(NC(=O)Nc2ccc(F)cc2)n1 : does hERG current change (%, negative = inhibition) at 10uM equal or exceed 10%?
Out: Y

In: Check the entry CC(=C/C(=O)O)/C(=C/c1ccccc1)C(=O)O : does hERG current change (%, negative = inhibition) at 10uM equal or exceed 10%?
Out: Y

In: Check the entry N#CCCn1cc(C(=O)Nc2ccc([N+](=O)[O-])cc2)c(-c2cccs2)n1 : does hERG current change (%, negative = inhibition) at 10uM equal or exceed 10%?
Out: N

In: Check the entry CCCc1cc(=O)[nH]c(SCC(=O)NN(c2ccccc2)c2ccccc2)n1 : does hERG current change (%, negative = inhibition) at 10uM equal or exceed 10%?
Out: N

In: Check the entry O=C(Nc1ccccc1Oc1cccnc1)C1CCCN(Cc2cccc(Cl)c2)C1 (stereo not drawn) : does hERG current change (%, negative = inhibition) at 10uM equal or exceed 10%?
Out: N

In: Check the entry COC(=O)C(Cc1ccccc1)NC(=O)C(CC(C)C)NC(=O)OC(C)(C)C (stereo not drawn) (Boc-Leu-Phe-OMe; configuration not given here) : does hERG current change (%, negative = inhibition) at 10uM equal or exceed 10%?
Out: Y

In: Check the entry C=CCNC(=O)Nc1cc(Cl)ccc1OC : does hERG current change (%, negative = inhibition) at 10uM equal or exceed 10%?
Out: N

In: Check the entry O=C(O)c1cccc(Cn2c(Cl)c(/C=N/NC(=O)c3ccccc3O)sc2=O)c1 : does hERG current change (%, negative = inhibition) at 10uM equal or exceed 10%?
Out: Y

In: Check the entry CC(C)c1ccc(NC(=O)C(c2ccc3c(c2)OCO3)N2CCN(C(=O)c3ccco3)CC2)cc1 (stereo not drawn) : does hERG current change (%, negative = inhibition) at 10uM equal or exceed 10%?
Out: N

In: Check the entry Cc1ccc(S(=O)(=O)N(Cc2cccc(F)c2)C(=O)N2CCN(C)CC2)cc1 : does hERG current change (%, negative = inhibition) at 10uM equal or exceed 10%?
Out: Y

In: Check the entry CCCCCC(=O)N1CCN(CCN=CC2=C(O)CC(c3ccc(OC)cc3)CC2=O)CC1 (stereo not drawn) : does hERG current change (%, negative = inhibition) at 10uM equal or exceed 10%?
Out: N

In: Check the entry CCCCCC(=O)N1CCN(CCN=CC2=C(O)CC(c3ccc(OC)c(OC)c3)CC2=O)CC1 (stereo not drawn) : does hERG current change (%, negative = inhibition) at 10uM equal or exceed 10%?
Out: N

In: Check the entry O=C(Nc1ccccc1Oc1cccnc1)C1CCCN(Cc2ccc(F)cc2)C1 (stereo not drawn) : does hERG current change (%, negative = inhibition) at 10uM equal or exceed 10%?
Out: N

In: Check the entry Cc1nc2ncccn2c1-c1csc(Nc2ccccc2)n1 : does hERG current change (%, negative = inhibition) at 10uM equal or exceed 10%?
Out: N

In: Check the entry S=c1[nH]nc(-c2ccccc2)n1/N=C/c1ccc(-c2ccccc2Cl)o1 : does hERG current change (%, negative = inhibition) at 10uM equal or exceed 10%?
Out: Y

In: Check the entry CN(C)c1cccc(C(=O)Nc2nnc(Cc3ccccc3)s2)c1 : does hERG current change (%, negative = inhibition) at 10uM equal or exceed 10%?
Out: N

In: Check the entry Cc1ccc(NC(=O)COC(=O)COc2cccc3c2OC(C)(C)C3)c(C)c1 : does hERG current change (%, negative = inhibition) at 10uM equal or exceed 10%?
Out: Y

In: Check the entry NC(=O)c1coc(-c2ccccc2)n1 : does hERG current change (%, negative = inhibition) at 10uM equal or exceed 10%?
Out: Y

In: Check the entry Cc1ccc(NC(=O)c2cn(CCC#N)nc2-c2ccc3c(c2)OCCO3)c([N+](=O)[O-])c1 : does hERG current change (%, negative = inhibition) at 10uM equal or exceed 10%?
Out: N

In: Check the entry COc1ccc(NC(=O)c2cn(CCC#N)nc2-c2cccs2)cc1 : does hERG current change (%, negative = inhibition) at 10uM equal or exceed 10%?
Out: N

In: Check the entry COc1ccc(NC(=O)c2cn(CCC#N)nc2-c2ccc([N+](=O)[O-])cc2)cc1 : does hERG current change (%, negative = inhibition) at 10uM equal or exceed 10%?
Out: N

In: Check the entry COc1ccc(-c2nn(CCC#N)cc2C(=O)Nc2cccc(C(=O)O)c2)cc1OC : does hERG current change (%, negative = inhibition) at 10uM equal or exceed 10%?
Out: Y

In: Check the entry Cc1ccc(Nc2nc(-c3c(C)nc4ncccn34)cs2)cc1 : does hERG current change (%, negative = inhibition) at 10uM equal or exceed 10%?
Out: N

In: Check the entry COc1ccc(OCC(=O)NCc2ccc(Cl)cc2)cc1 : does hERG current change (%, negative = inhibition) at 10uM equal or exceed 10%?
Out: N

In: Check the entry Cc1c(-c2cccc(NC(=O)c3ccco3)c2)nc2ncccn12 : does hERG current change (%, negative = inhibition) at 10uM equal or exceed 10%?
Out: N

In: Check the entry Cc1[nH]c2ccccc2c1/C=N\NC(=O)c1ccco1 : does hERG current change (%, negative = inhibition) at 10uM equal or exceed 10%?
Out: Y

In: Check the entry CCOC(=O)C1(CC2CC2)CCN(Cc2ccc(C(=O)OC)cc2)CC1 : does hERG current change (%, negative = inhibition) at 10uM equal or exceed 10%?
Out: N

In: Check the entry CCCOC(=O)c1ccc(NC(=O)c2cc(OC)c(OC)c(OC)c2Br)cc1 : does hERG current change (%, negative = inhibition) at 10uM equal or exceed 10%?
Out: N

In: Check the entry CCCCCOC(=O)c1ccc(N2C(=O)C3C4C=CC(C4)C3C2=O)cc1 (stereo not drawn) : does hERG current change (%, negative = inhibition) at 10uM equal or exceed 10%?
Out: N

In: Check the entry Cc1nc2ncccn2c1-c1csc(Nc2cccc(C(=O)O)c2)n1 : does hERG current change (%, negative = inhibition) at 10uM equal or exceed 10%?
Out: N

In: Check the entry CN(C)/C=C1\SC(=S)N(c2ccc(Br)cc2)C1=O : does hERG current change (%, negative = inhibition) at 10uM equal or exceed 10%?
Out: N

In: Check the entry COc1ccc(-c2nn(CCC#N)cc2C(=O)Nc2ccccc2)cc1OC : does hERG current change (%, negative = inhibition) at 10uM equal or exceed 10%?
Out: N
